study.target: Glucagon-like peptide 1 receptor (Homo sapiens, UniProt P43220)
Sequence (P43220 whole entry): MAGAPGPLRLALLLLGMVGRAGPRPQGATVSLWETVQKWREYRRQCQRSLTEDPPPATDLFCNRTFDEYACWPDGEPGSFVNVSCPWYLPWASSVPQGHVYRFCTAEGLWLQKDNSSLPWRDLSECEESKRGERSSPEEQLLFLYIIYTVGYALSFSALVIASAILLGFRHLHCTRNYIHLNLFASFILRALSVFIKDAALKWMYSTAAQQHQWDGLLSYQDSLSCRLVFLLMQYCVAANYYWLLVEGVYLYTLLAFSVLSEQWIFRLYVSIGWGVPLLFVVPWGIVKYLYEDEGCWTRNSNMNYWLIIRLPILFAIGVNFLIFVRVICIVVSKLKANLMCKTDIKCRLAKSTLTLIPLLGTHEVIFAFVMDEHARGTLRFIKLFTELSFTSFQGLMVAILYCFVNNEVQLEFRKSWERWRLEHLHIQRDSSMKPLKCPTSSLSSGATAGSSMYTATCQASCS
procedure.text: Partial agonist activity at N-terminal HA-tagged human GLP-1R expressed in HEK293 cells co-expressing Smbit-beta-arrestin 1/2 and GLP-1R-LgBit assessed as beta-arrestin-2 recruitment measured after 5 mins by bioluminescence based NanoBiT assay
Type: functional, cell-based
measured.quantity: EC50 (nM)
Give bare numbers, in nM.

What EC50 value was documented for this compound, COc1cc(C(F)(F)F)ccc1COc1cccc(N2C=NN(Cc3nc4c(F)cc(C(=O)O)cc4n3C[C@@H]3CCO3)CC2)n1 ?
136

* * *

For each record, write down the corresponding Papp A→B at 1.583 h, 10 µM.
procedure.text: Apparent permeability across apical to basolateral side in human Caco-2 cells at 10 uM measured after 95 mins by LC-MS/MS analysis
Type: ADME, cell-based
One number for each entry, in ×10⁻⁶ cm/s.

# compound.structure, Papp A→B at 1.583 h, 10 µM (×10⁻⁶ cm/s)
records = [
    ("COc1cc(C#N)ccc1COc1cccc(N2C=NN(Cc3nc4c(F)cc(C(=O)O)cc4n3C[C@@H]3CCO3)CC2)n1", 0.19),
]

Query (compound): COc1cc(C(F)(F)F)ccc1COc1cccc(N2C=NN(Cc3nc4c(F)cc(C(=O)O)cc4n3C[C@@H]3CCO3)CC2)n1 ; field requested: Papp A→B at 1.583 h, 10 µM
0.57

* * *

Provide the recorded CLH for the entries that follow.
procedure.text: Stability in rat liver microsomes assessed as intrinsic clearance at 1 uM measured upto 60 mins in the presence of NADPH by LC-MS/MS analysis
Format: ADME, Microsome
condition.summary: 1 h
For clarity, give the value followed by its unit.

# example entries with known answers
# compound, measured.quantity, result
measured = [
    ("COc1cc(C(F)(F)F)ccc1COc1cccc(N2C=NN(Cc3nc4c(F)cc(C(=O)O)cc4n3C[C@@H]3CCO3)CC2)n1", "CLH", "28 mL/min/g"),
    ("COc1cc(Cl)ccc1COc1cccc(N2C=NN(Cc3nc4c(F)cc(C(=O)O)cc4n3C[C@@H]3CCO3)CC2)n1", "CLH", "45 mL/min/g"),
    ("O=C(O)c1cc(F)c2nc(CN3CCN(c4cccc(OCc5ccc(Cl)c6c5OCC6)n4)C=N3)n(C[C@@H]3CCO3)c2c1", "CLH", "59 mL/min/g"),
    ("N#Cc1ccc(COc2cccc(N3C=NN(Cc4nc5c(F)cc(C(=O)O)cc5n4C[C@@H]4CCO4)CC3)n2)c2occc12", "CLH", "33 mL/min/g"),
    ("N#Cc1ccc(COc2cccc(C3CCN(Cc4nc5ccc(C(=O)O)cc5n4C[C@@H]4CCO4)CC3)n2)c(F)c1 [DANUGLIPRON]", "CLH", "13 mL/min/g"),
]

Respectfully, I request CLH for each entry included below.
1. O=C(O)c1cc(F)c2nc(CN3CCN(c4cccc(OCc5ccc(Cl)c6cc(F)oc56)n4)C=N3)n(C[C@@H]3CCO3)c2c1
2. COc1cc(C#N)ccc1COc1cccc(N2C=NN(Cc3nc4c(F)cc(C(=O)O)cc4n3C[C@@H]3CCO3)CC2)n1

1. 22 mL/min/g
2. 16 mL/min/g

* * *

study.target: Glucagon-like peptide 1 receptor (Homo sapiens)
procedure.text: Agonist activity at N-terminal HA-tagged human GLP-1R expressed in HEK293 cells assessed as change in intracellular calcium level by Fluo-4 AM dye based calcium mobilization assay
Assay type: functional, cell-based
measured.quantity: pEC50
One number for each entry, as −log10 of the molar value.

I have this molecule here, COc1cc(C(F)(F)F)ccc1COc1cccc(N2C=NN(Cc3nc4c(F)cc(C(=O)O)cc4n3C[C@@H]3CCO3)CC2)n1 , and I need its recorded pEC50.
6.77

* * *

study.target: hERG (KCNH2) (Homo sapiens)
Sequence (Q12809 whole entry): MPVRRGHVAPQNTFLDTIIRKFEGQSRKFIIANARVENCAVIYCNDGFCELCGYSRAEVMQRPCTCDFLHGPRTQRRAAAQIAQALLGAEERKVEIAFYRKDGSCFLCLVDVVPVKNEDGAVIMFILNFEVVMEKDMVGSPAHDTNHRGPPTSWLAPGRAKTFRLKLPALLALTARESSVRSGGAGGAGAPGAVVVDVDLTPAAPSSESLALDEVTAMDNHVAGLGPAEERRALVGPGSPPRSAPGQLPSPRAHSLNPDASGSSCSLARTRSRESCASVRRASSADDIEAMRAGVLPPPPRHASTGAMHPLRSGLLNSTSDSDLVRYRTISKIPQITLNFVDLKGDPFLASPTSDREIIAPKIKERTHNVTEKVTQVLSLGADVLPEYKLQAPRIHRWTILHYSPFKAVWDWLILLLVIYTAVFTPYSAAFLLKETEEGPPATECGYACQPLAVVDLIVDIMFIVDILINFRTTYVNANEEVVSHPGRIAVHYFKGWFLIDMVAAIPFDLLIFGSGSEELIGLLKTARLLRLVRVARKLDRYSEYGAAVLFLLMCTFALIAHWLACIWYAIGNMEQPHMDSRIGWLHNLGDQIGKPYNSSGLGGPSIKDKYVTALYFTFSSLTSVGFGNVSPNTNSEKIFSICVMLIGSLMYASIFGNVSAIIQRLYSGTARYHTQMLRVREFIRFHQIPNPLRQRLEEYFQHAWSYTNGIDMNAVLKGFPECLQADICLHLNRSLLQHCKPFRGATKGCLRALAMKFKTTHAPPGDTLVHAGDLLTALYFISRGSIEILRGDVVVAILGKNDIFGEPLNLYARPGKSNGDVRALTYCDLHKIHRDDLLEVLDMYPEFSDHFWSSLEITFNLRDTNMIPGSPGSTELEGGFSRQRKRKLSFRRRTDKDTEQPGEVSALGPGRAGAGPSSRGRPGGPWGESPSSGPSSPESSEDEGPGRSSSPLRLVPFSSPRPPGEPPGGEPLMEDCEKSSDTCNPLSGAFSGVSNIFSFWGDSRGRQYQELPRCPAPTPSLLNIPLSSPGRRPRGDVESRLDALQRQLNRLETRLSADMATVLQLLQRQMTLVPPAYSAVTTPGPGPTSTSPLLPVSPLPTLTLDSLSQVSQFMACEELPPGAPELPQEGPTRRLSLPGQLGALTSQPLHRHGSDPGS
procedure.text: Inhibition of hERG at 40 uM relative to control
measured.quantity: inhibition at 40 µM (%)
Numbers only, in %.

# compound, inhibition at 40 µM / %
rows = [
    ("COc1cc(C(F)(F)F)ccc1COc1cccc(N2C=NN(Cc3nc4c(F)cc(C(=O)O)cc4n3C[C@@H]3CCO3)CC2)n1", 20),
    ("COc1cc(C#N)ccc1COc1cccc(N2C=NN(Cc3nc4c(F)cc(C(=O)O)cc4n3C[C@@H]3CCO3)CC2)n1", 50),
    ("COc1cc(Cl)ccc1COc1cccc(N2C=NN(Cc3nc4c(F)cc(C(=O)O)cc4n3C[C@@H]3CCO3)CC2)n1", 44),
    ("N#Cc1ccc(COc2cccc(N3C=NN(Cc4nc5c(F)cc(C(=O)O)cc5n4C[C@@H]4CCO4)CC3)n2)c2occc12", 30),
    ("N#Cc1ccc(COc2cccc(N3C=NN(Cc4nc5ccc(C(=O)O)cc5n4C[C@@H]4CCO4)CC3)n2)c(F)c1", 48),
]

Each compound below has a recorded value; state its inhibition at 40 µM.
1. N#Cc1ccc(COc2cccc(C3CCN(Cc4nc5ccc(C(=O)O)cc5n4C[C@@H]4CCO4)CC3)n2)c(F)c1 [DANUGLIPRON]
2. O=C(O)c1cc(F)c2nc(CN3CCN(c4cccc(OCc5ccc(Cl)c6c5OCC6)n4)C=N3)n(C[C@@H]3CCO3)c2c1

1. 90
2. 51

* * *

Please respond with reported pIC50 for every item in the list.
study.target: Voltage-gated inwardly rectifying potassium channel KCNH2 (Homo sapiens, UniProt Q12809)
procedure.text: Inhibition of hERG
pIC50: −log10 of the molar value.

# compound.structure, result
rows = [
    ("COc1cc(Cl)ccc1COc1cccc(N2C=NN(Cc3nc4c(F)cc(C(=O)O)cc4n3C[C@@H]3CCO3)CC2)n1", "< 4.40"),
    ("N#Cc1ccc(COc2cccc(N3C=NN(Cc4nc5c(F)cc(C(=O)O)cc5n4C[C@@H]4CCO4)CC3)n2)c2occc12", "< 4.40"),
    ("O=C(O)c1cc(F)c2nc(CN3CCN(c4cccc(OCc5ccc(Cl)c6c5OCC6)n4)C=N3)n(C[C@@H]3CCO3)c2c1", 7.30),
    ("COc1cc(C(F)(F)F)ccc1COc1cccc(N2C=NN(Cc3nc4c(F)cc(C(=O)O)cc4n3C[C@@H]3CCO3)CC2)n1", "< 4.40"),
    ("COc1cc(C#N)ccc1COc1cccc(N2C=NN(Cc3nc4c(F)cc(C(=O)O)cc4n3C[C@@H]3CCO3)CC2)n1", "< 4.40"),
]

Consider the molecule shown here: N#Cc1ccc(COc2cccc(N3C=NN(Cc4nc5ccc(C(=O)O)cc5n4C[C@@H]4CCO4)CC3)n2)c(F)c1 What is its recorded pIC50?
< 4.40

* * *

study.target: Glucagon-like peptide 1 receptor (Homo sapiens, UniProt P43220)
procedure.text: Partial agonist activity at N-terminal HA-tagged human GLP-1R expressed in HEK293 cells co-expressing Smbit-beta-arrestin 1/2 and GLP-1R-LgBit assessed as beta-arrestin-1 recruitment measured after 5 mins by bioluminescence based NanoBiT assay
Assay type: functional, cell-based
measured.quantity: pEC50
Numbers only, as −log10 of the molar value.

Kindly state the measured pEC50 obtained for COc1cc(C(F)(F)F)ccc1COc1cccc(N2C=NN(Cc3nc4c(F)cc(C(=O)O)cc4n3C[C@@H]3CCO3)CC2)n1 with Glucagon-like peptide 1 receptor (Homo sapiens, UniProt P43220).
6.76

* * *

procedure.text: Half-life in Sprague-Dawley rat at 5 mg/kg, po measured upto 24 hrs by LC-MS/MS analysis
Assay type: ADME, organism-based
condition.summary: in vivo
measured.quantity: half-life (min)
Numbers only, in min.

Query (compound): COc1cc(C(F)(F)F)ccc1COc1cccc(N2C=NN(Cc3nc4c(F)cc(C(=O)O)cc4n3C[C@@H]3CCO3)CC2)n1 ; field requested: half-life
63

* * *

procedure.text: Drug concentration in C57BL/6J mouse plasma at 5 mg/kg, po measured after 1 hrs by LC-MS/MS analysis
Type: ADME, organism-based
measured.quantity: concentration at 1 h (ng/mL)
Answers are plain numbers, in ng/mL.

# compound.structure, recorded.number
data = [
    ("COc1cc(C(F)(F)F)ccc1COc1cccc(N2C=NN(Cc3nc4c(F)cc(C(=O)O)cc4n3C[C@@H]3CCO3)CC2)n1", 132),
]

Look up concentration at 1 h for this compound: COc1cc(C#N)ccc1COc1cccc(N2C=NN(Cc3nc4c(F)cc(C(=O)O)cc4n3C[C@@H]3CCO3)CC2)n1
12

* * *

study.target: UniProt:P43220
procedure.text: Agonist activity at N-terminal HA-tagged human GLP-1R expressed in HEK293 cells assessed as effect on intracellular cAMP accumulation incubated for 30 mins by LANCA ultra cAMP assay
Type: functional, cell-based
pEC50: −log10 of the molar value.
measured.quantity: pEC50

# compound.structure, pEC50
records = [
    ("O=C(O)c1ccc2nc(Cn3ccc(-c4cccc(OCc5ccc(Cl)cc5F)n4)nc3=O)n(C[C@@H]3CCO3)c2c1", "< 5.00"),
    ("N#Cc1ccc(COc2cccc(N3C[C@H]4CN(Cc5nc6ccc(C(=O)O)cc6n5C[C@@H]5CCO5)C[C@H]4C3)n2)c(F)c1", "< 5.00"),
]

What value of pEC50 has been reported for the following compound? N#Cc1ccc(COc2cccc(N3CC4(CC3=O)CN(Cc3nc5ccc(C(=O)O)cc5n3C[C@@H]3CCO3)C4)n2)c(F)c1
< 5.00
